Reference for the values: ChEMBL document CHEMBL4346705

Tested on: SK-MEL-2
Assay remarks: Antiproliferative activity against human SK-MEL-2 cells assessed as cell viability at 10^-5 M incubated for 48 hrs by sulforhodamine B assay relative to control
Type: functional
Recorded conditions: SK-MEL-2, 48 h, read-out: Activity
Readout name: viability at 10 µM (%)
Please give a number only; it is taken to be in %.

The examples below pair each entry with its known result.
CCCOc1cc2c(cc1OCC)C1CC(O)C(O)C(O)C1NC2=O (racemic)    105
O=C1NC2C(CC(O)C(O)C2O)c2cc3c(c(O)c21)OCCO3 (racemic)    -48.7

Let us move to another entry and its viability at 10 µM.
Prompt line: Find the measured viability at 10 µM of CCOc1cc2c(c(OCC)c1OCC)C(=O)NC1C2CC(O)C(O)C1O (racemic) and report it.
Response line: 99.2

###

Test system: HOP-92
Assay remarks: Antiproliferative activity against human HOP92 cells assessed as cell viability at 10^-5 M incubated for 48 hrs by sulforhodamine B assay relative to control
Format: functional
Recorded conditions: HOP-92, 48 h, read-out: Activity
Readout name: viability at 10 µM (%)
Report only the number, with the unit % understood.

Solved cases (3 shown):
CCCOc1cc2c(cc1OCC)C1CC(O)C(O)C(O)C1NC2=O (racemic)    110
CCOc1c(OC)cc2c(c1OCC)C(=O)NC1C2CC(O)C(O)C1O (racemic)    84
CCOc1cc2c(c(OCC)c1OCC)C(=O)NC1C2CC(O)C(O)C1O (racemic)    82.8

Prompt line: Given the compound O=C1NC2C(CC(O)C(O)C2O)c2cc3c(c(O)c21)OCO3 (racemic) , write its reported viability at 10 µM.
Response line: -19

Prompt line: Supply reported viability at 10 µM belonging to this compound: CCOc1cc2c(c(O)c1OCC)C(=O)NC1C2CC(O)C(O)C1O (racemic)
Response line: 78.5

Prompt line: Give reported viability at 10 µM value for COc1c2c(cc3c1C(=O)NC1C3CC(O)C(O)C1O)OCCO2 (racemic)
Response line: 91.6

Prompt line: Using known records, supply viability at 10 µM for CCOc1c(OC)cc2c(c1O)C(=O)NC1C2CC(O)C(O)C1O (racemic)
Response line: 85.2

Prompt line: Find the measured viability at 10 µM of O=C1NC2C(CC(O)C(O)C2O)c2cc3c(c(O)c21)OCCO3 (racemic) and report it.
Response line: -20.1

Prompt line: Write down viability at 10 µM measured for item CCOc1cc2c(c(OC)c1OCC)C(=O)NC1C2CC(O)C(O)C1O (racemic)
Response line: 86.4

Prompt line: For COc1cc2c(c3c1OCCO3)C(=O)NC1C2CC(O)C(O)C1O (racemic) , write its viability at 10 µM.
Response line: 77.7

Prompt line: Name the recorded viability at 10 µM of the compound listed here: O=C1NC2C(CC(O)C(O)C2O)c2cc3c(cc21)OCCO3 (racemic)
Response line: 101

Prompt line: Please list viability at 10 µM recorded for the compound CCOc1cc2c(cc1OCC)C1CC(O)C(O)C(O)C1NC2=O (racemic)
Response line: 102

Prompt line: Item COc1cc2c(c(OC)c1OC)C(=O)NC1C2CC(O)C(O)C1O (racemic) : provide viability at 10 µM
Response line: 91.4
